Entry source: the supplement of paper PMC12042874

Reported values of amyloid nucleation score for individual entries
# protocol-text: amyloid nucleation score (Sup35N fusion, yeast selection) (log enrichment); library NNK2; higher = more nucleation; inactive = no reads after selection;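 note: zero at mode of non-aggregating sequences after 7 days selection at 30°C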
readout-name: amyloid nucleation score

| substance | readout-name | number |
| --- | --- | --- |
| LIQVGQSST | amyloid nucleation score | 0.046 |
| TLKEGRWEVPCLIWIWRVWS | amyloid nucleation score | 1.6 |
| GKRVLRWTNWMAR | amyloid nucleation score | 1.83 |
| VNFLWE | amyloid nucleation score | -0.447 |
| FRLILWPIDCAINTNRRCNR | amyloid nucleation score | 4.38 |
| VTMKHVAGSSHDCPYAILTN | amyloid nucleation score | 0.082 |
| VESLRLRRSMVRNLILSSSC | amyloid nucleation score | -0.125 |
| GIIDLIYCNAEEHSHWGDFA | amyloid nucleation score | -1.17 |
| NGNGCLAFAKTVFCWVDGLP | amyloid nucleation score | 7.21 |
| LCFLVFMLRPRLASLYSRML | amyloid nucleation score | -1.11 |
| SHFCVVCEYTLVSSYHR | amyloid nucleation score | 5.09 |
| RLSFQSCCLPFVYWNWW | amyloid nucleation score | 7.74 |
| PSNKYSDVPSNAQSGFAWYG | amyloid nucleation score | 0.56 |
| VSCAESVGIYINYWFLNCQE | amyloid nucleation score | 8.7 |
| PVCGVIALDSVTLCSSGMLL | amyloid nucleation score | 0.334 |
| FSFSEHRL | amyloid nucleation score | 0.045 |
| LEKKLFVKVYRHSICIGVAE | amyloid nucleation score | 1.9 |
| LLLVHL | amyloid nucleation score | 1.08 |
| GYSLYVYIMDFFTWGNRVII | amyloid nucleation score | 2.02 |
| PPGFMYLYCGLYAQSSRSSW | amyloid nucleation score | 0.546 |
| FSGFSLRSPTTRGGVCGKTV | amyloid nucleation score | 0.575 |
| FSCSLQRIGEMSRDKSYTPA | amyloid nucleation score | 0.503 |
| WRSYDMYSSWSIYVMAMTIS | amyloid nucleation score | -1.11 |
| KYCSINCYRTASFQTFHLCW | amyloid nucleation score | 6.23 |
| VRYKSYMDVS | amyloid nucleation score | 0.87 |
| ADRYMHSTHVDNCPYAGFTS | amyloid nucleation score | 0.444 |
| LMGIEVDGYYGCRCLTP | amyloid nucleation score | 0.236 |
| EREVCMFRLYAKRGPAVDWL | amyloid nucleation score | 2.19 |
| IVIGRQCPTWFDVARYR | amyloid nucleation score | 1.07 |
| YAFKRECWCHYHHHCVQMFW | amyloid nucleation score | 0.49 |
| LFFCDPWPHLMWHLPRIVHL | amyloid nucleation score | -0.748 |
| ESHCYSGDTWLCLCLSLVTR | amyloid nucleation score | 8.46 |
| RKEVCTVRNLHSRFRGGAIR | amyloid nucleation score | -0.119 |
| GGSMSGFLSCGMI | amyloid nucleation score | -1.02 |
| LYLWWILIYDHMAPKEW | amyloid nucleation score | -0.47 |
